Test: chemical genetic growth profiling, strain panel (AID 1159580);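 also: tested at 20 µM; growth read once vehicle control cultures reached saturation at 30 °C; 1 = growth at the plate median or of vehicle wells; lower values mean less growth of the strain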
Conditions: S. cerevisiae deletion strains, growth OD, locus YDL185W, strain tfp1, hits give low values
Out of some 5,500 compounds screened, about 2,000 (36%) were called active. Another 18% or so got no clear call; they are omitted. The list shows a part of the results.
MEASURE NAME: normalized growth
Could you respond with only the numeric value?

Field normalized growth (entry CCC(c1ccc(O)cc1)C(CC)c1ccc(O)cc1 (stereo unspecified) ) reads 0.995

The molecule listed as CC(C)(C)NCC(O)c1cc(Cl)c(N)c(Cl)c1 (stereo unspecified) shows normalized growth equal to 1

Entry `O=C(O)C1=C[C@@H](O)[C@@H](O)[C@H](O)C1` , normalized growth reported as 1.01

Reported normalized growth ( CC1(C)C2CC(=O)[C@]3(C)C(CC[C@@]4(C)[C@H](c5ccoc5)OC(=O)[C@H]5O[C@]543)[C@@]2(C)C(=O)C[C@H]1O (stereo partly specified) ) = 1.02

Lab note: measured normalized growth of CCC(N)C(O)c1ccc(O)c(O)c1 (stereo unspecified) was 0.968

Entry Cc1ccccc1OCC(O)CO (stereo unspecified) ; normalized growth = 0.99

For record `CC/C(=C(/CC)c1ccc(O)cc1)c1ccc(O)cc1` the listed normalized growth is 0.997

# molecule `CCOCN(C(=O)CCl)c1c(C)cccc1CC` ; its normalized growth = 0.967

Measured normalized growth of `CC1=CC(=O)C2=C(C)CC[C@@H]3[C@H](OC(=O)[C@H]3C)[C@@H]12` : 0.978

The recorded normalized growth for CC(=O)[C@@]1(O)CCC2C3C[C@H](C)C4=CC(=O)C=CC4(C)[C@@]3(F)[C@@H](O)C[C@@]21C (stereo partly specified) is 1.03

In plain terms, `CC(=O)OCC1=C(C(=O)O)N2C(=O)[C@@H](NC(=O)Cc3cccs3)[C@H]2SC1` has a documented normalized growth of 0.965
